# system_name: acetylcholine receptor
# experiment_summary: SPR, AchR immobilised on chip, peptide 10 uM
measured_parameter: Binding affinity (RU)

Known Binding affinity (RU) results, listed for orientation:
1) KKGFQK [6mer-1-255]    139
2) RDEKK [5mer-825]    14
3) KKPVK [5mer-1124]    30
4) RPDWR [5mer-846]    32
5) RKPIK [5mer-816]    26
6) KRQRQK [6mer-1-220]    148

P = RRSRRR [6mer-1-240]
Q = RAKGK [5mer-822]
Prompt: Returns the identifier with the smallest measured Binding affinity (RU) among P and Q . Write the label of whichever entry you select.
Completion: Q
(Q: 16 RU, P: 148 RU)
